Test system: NCI-H460 lung
protocol.text: NCI-60 one-dose screen, 48 h
run.parameters: 10 µM unless noted
About 83,000 compounds went through this panel and 20% of them were active in at least one assay; those are over-represented in the sample as a whole. Calls of active or inactive are those of the source. How the source made its calls: active means growth percent below 10; inactive means the rest.
Please answer using one outcome listed in active, inactive

Here are 2 compounds together with their reported answers.
| compound | target.entity | classification |
| --- | --- | --- |
| Cn1cc(-c2nc(-c3c[nH]c4ncccc34)cs2)c2cccnc21 | NCI-H460 lung | inactive |
| CSc1ncc2ncn(C3OC(CO)C(O)C3O)c2n1 (stereo unspecified) | NCI-H460 lung | inactive |

Recorded call for N#Cc1c2ccccc2c2n1-c1ccccc1OC(c1ccccc1)C2=O (stereo unspecified) ?
inactive

Next compound: `CCCC[N+](CCCC)=c1ccc2nc3c(C)cc(N(CC)CC)cc3sc-2c1`
active

Next compound: `Clc1cccc(Cc2cn3cc(-c4ccccc4)nc3s2)c1`
inactive

Next compound: `CC(C)(C)c1cc(O)c(O)c(C(C)(C)C)c1`
inactive

====

Test system: NCI-H226 lung
protocol.text: NCI-60 one-dose screen, 48 h
run.parameters: 10 µM unless noted
This is part of a sample that, as a whole, favours compounds with a hit. Of some 83,000 tested, about 20% had one in any assay. Activity calls are given as the source filed them. How the source made its calls: active means growth percent below 10; inactive means the rest.
Please answer using one outcome listed in active, inactive

Here are 2 compounds together with their reported answers.
| compound | classification |
| --- | --- |
| Cc1cc(NC(=O)Nc2cc(Cl)ccc2C)no1 | inactive |
| CCCCCCC(C)(O)c1ccccc1 (stereo unspecified) | inactive |

Recorded call for `C/C(=C\CCc1ccsc1)CC/C=C(\C)CCCN1CCC(CO)CC1` ?
inactive

Next compound: `CCCCCCC/C(=N\N=C(N)N)c1ccc(O)cc1`
active

Next compound: `COc1ccc(-c2csc(NC(=O)c3cc(OC)c(OC)c(OC)c3)n2)cc1`
inactive

Next compound: `COc1cc(/C=C/C(=O)c2c(-c3ccc(Cl)cc3)nc3sc(C)nn23)cc(OC)c1OC`
inactive

Next compound: `O=C(CCc1nnc2sc(-c3ccc(Cl)cc3Cl)nn12)c1nc2ccccc2[nH]1`
active

Next compound: `ClC1=C(Cl)C(Cl)=C(Cl)C1=Cc1ccc(Cl)cc1`
inactive

Next compound: `O=C(Nc1ccc(Cl)cc1Cl)Nc1ccc(-c2cccnc2)cc1N1CCC(CO)CC1`
inactive

Next compound: CCOC(=O)C1=NN(c2ccc(Cl)cc2)C2C3N(c4ccc(Cl)cc4)N=C(C(=O)OCC)N3c3ccccc3N12 (stereo unspecified)
inactive

Next compound: COc1ccc(C2=NN(C(C)=O)C(c3cc(OC)c(OC)c(OC)c3)C2)cc1 (stereo unspecified)
inactive

====

Here the recorded growth is given for each entry.
System: NCI-H322M lung
protocol.text: NCI-60 one-dose screen, 48 h (100 = growth as untreated, 0 = no growth, -100 = all killed)
run.parameters: 10 µM unless noted
Compounds without any hit were thinned out: in the full panel of roughly 83,000, 20% have a hit.
Quick note: give the figure in %, leave out the unit.

Examples with their reported growth follow.
| molecule | result.number |
| --- | --- |
| COc1ccc(CCN2CCCN3C2=Nc2ccccc2S3(=O)=O)cc1 | 59.6 |
| Nc1nc(N)c([N+](=O)[O-])c(=O)[nH]1 | 104 |
| CCCCCCOc1ccc(/C=N/NC(N)=S)cc1 | 122 |
| CCN1C[C@@H](C)n2c(c(O)c3c(=O)n(Cc4ccc(F)c(Cl)c4)nc(C(=O)NC)c32)C1=O | 18.4 |
| CNc1ccc(CSc2ccc(Cl)cc2)cc1 | 123 |

Please provide the recorded growth for `COc1ccc2c(c1)C(=O)c1c-2c(OCCN(C)C)nc2cc(OC)ccc12` , tested on NCI-H322M lung.
19.7

Next molecule: `Clc1ccccc1[C@@H]1C[C@@H]2Cc3cc(Br)c4ccccc4c3N1O2`
61

Next molecule: COc1ccc(C2=NN(C(C)=O)C(c3cc(OC)c(OC)c(OC)c3)C2)cc1 (stereo not drawn)
119

Next molecule: CCCCC1Nc2nc(SC)n(C)c(=O)c2CN(Cc2ccccc2)C1=O (stereo not drawn)
90.6

====

Tested on: SK-MEL-2 melanoma
protocol.text: NCI-60 one-dose screen, 48 h
run.parameters: 10 µM unless noted
Procedure: Growth inhibition of the SK-MEL-2 human tumor cell line is measured as a screen for anti-cancer activity. Cells are grown in 96 well plates and exposed to the test compound for 48 hours. Compounds are tested at a single concentration, which is 10^-5 M for most compounds. The reported endpoint is percent growth (GI% or GIPRCNT), where numbers from 0 - 100% represent growth inhibition, and numbers from -100% - 0 represent cell death. For example, a value of 40 represents 60% growth inhibition. […]
Compounds without any hit were thinned out: in the full panel of roughly 83,000, 20% have a hit. Calls of active or inactive are those of the source. Rule for the calls: active = growth percent below 10; inactive = the rest.
Please answer using one outcome listed in active, inactive

Here are 5 molecules together with their reported answers.
| molecule | target.entity | classification |
| --- | --- | --- |
| Cc1cc(N2CCOCC2)nc(N2CCOCC2)n1 | SK-MEL-2 melanoma | inactive |
| CCn1c2ccccc2c2ccc(C(C)=O)cc21 | SK-MEL-2 melanoma | inactive |
| O=C(C(=O)N1CCOCC1)c1ccc(OC2OC(CO)C(O)C(O)C2O)cc1 (stereo unspecified) | SK-MEL-2 melanoma | inactive |
| O=C(/C=C/c1cccnc1)/C=C/c1cccnc1 | SK-MEL-2 melanoma | inactive |
| COC(=O)c1ccc2c(c1)nc(-c1ccc(O)c(OC)c1)n2-c1cc(C(C)(C)C)[nH]n1 | SK-MEL-2 melanoma | inactive |

Recorded call for O=c1ccn(C2OC(CO)C(O)C2F)c(=O)[nH]1 (stereo unspecified) ?
inactive

====

Tested on: UO-31 renal
protocol.text: NCI-60 one-dose screen, 48 h
run.parameters: 10 µM unless noted
Compounds without any hit were thinned out: in the full panel of roughly 83,000, 20% have a hit. Active and inactive are the calls of the source. Rule for the calls: active = growth percent below 10; inactive = the rest.
Please answer using one outcome listed in true (1) = active, false (0) = inactive

Here are 5 compounds together with their reported answers.
| compound | classification |
| --- | --- |
| O=C(NCCc1ccccc1)C1CCC(=O)N1Cc1ccc(Br)cc1 (stereo unspecified) | false (0) |
| O=C(Oc1ccc[nH]c1=O)c1cccc(Cl)c1 | false (0) |
| O=C(CCc1nnc2sc(-c3ccc(Cl)cc3Cl)nn12)c1nc2ccccc2[nH]1 | true (1) |
| Clc1ccc(-c2nc(-c3cccs3)no2)c(Cl)c1 | false (0) |
| CC(C)COCC(CN(Cc1ccccc1)c1ccccc1)N1CCCC1 (stereo unspecified) | false (0) |

Attention now turns to another entry.
Recorded call for `C[n+]1ccc(Nc2ccc(NC(=O)c3ccc(Nc4cc[n+](C)c5ccc(N)cc45)cc3)cc2)cc1` ?
false (0)

====

System: IGROV1 ovarian
protocol.text: NCI-60 one-dose screen, 48 h
run.parameters: 10 µM unless noted
The panel holds about 83,000 compounds, 20% with a hit somewhere; the sample as a whole holds those more often. Activity calls are given as the source filed them. Rule for the calls: active = growth percent below 10; inactive = the rest.
Please answer using one outcome listed in 1 (yes) for active, 0 (no) for inactive

| compound | classification |
| --- | --- |
| [O-]/[N+](=C\C=C\c1ccccc1)c1ccccc1 | 0 (no) |
| CSc1nnc(C2=CC(=O)c3ccccc3C2=O)n1-c1ccccc1 | 0 (no) |
| CCCCCCCCCCCCCCCCCC1=NC(C)(C)CN1CCO | 1 (yes) |

Recorded call for `Cc1nn(-c2ccc(Cl)cc2)c2nc3c(nc12)C(=O)c1ccccc1-3` ?
0 (no)

Next compound: O=C(C(=O)N1CCOCC1)c1ccc(OC2OC(CO)C(O)C(O)C2O)cc1 (configuration not stated)
0 (no)

Next compound: `CCCCOc1ccc(C(C)(C)c2ccc(OCCCC)cc2)cc1`
0 (no)

Next compound: O=c1ccn(C2CCCO2)c(=O)[nH]1 (configuration not stated)
0 (no)

Next compound: `Cc1nn(-c2ccccc2)c2c1oc(=O)c1cc(Cl)ccc12`
0 (no)

Next compound: `COc1ccc2[nH]cc(/C=C3/C(=O)Nc4ccc(F)cc43)c2c1`
0 (no)

Next compound: `COc1cccc2c1O/C(=C\c1c([N+](=O)[O-])ncn1C)C2=O`
0 (no)

Next compound: `CCCn1cnc2c1c(=O)n(CCCCC(C)=O)c(=O)n2C`
0 (no)

Next compound: `O=C(OCCBr)c1ccc(Cl)c([N+](=O)[O-])c1`
0 (no)

====

System: CAKI-1 renal
protocol.text: NCI-60 one-dose screen, 48 h
run.parameters: 10 µM unless noted
Compounds without any hit were thinned out: in the full panel of roughly 83,000, 20% have a hit. Active and inactive are the calls of the source. Rule for the calls: active = growth percent below 10; inactive = the rest.
Please answer using one outcome listed in active, inactive

Here are 5 molecules together with their reported answers.
| molecule | classification |
| --- | --- |
| O=C(O)c1ccc(NC(=O)c2ccc(Nc3ccnc(C(F)(F)F)c3)cc2)cc1 | inactive |
| O=C(Nc1ccc(Nc2ccncc2)cc1)c1ccc(Nc2ccnc3ccc([N+](=O)[O-])cc23)cc1[N+](=O)[O-] | inactive |
| COc1ccc(-n2nc3c(c2-c2ccc(OC)c(OC)c2)-c2oncc2CC3)cc1 | inactive |
| Cn1cc(-c2nc(-c3c[nH]c4ncc(F)cc34)cs2)c2cccnc21 | inactive |
| COc1ccc(-c2noc(N)c2-c2cc(OC)c3c(c2)OCO3)cc1 | inactive |

Recorded call for `Cn1cc(-c2csc(-c3c[nH]c4ncccc34)n2)c2cc(F)cnc21` ?
inactive

Next molecule: `COc1cc2cn3c4ccc(O)cc4nc(N)c3c2cc1OC`
active

Next molecule: O=C(C(=O)N1CCCCC1)c1ccc(OC2OC(CO)C(O)C(O)C2O)cc1 (stereo not given)
inactive

Next molecule: `COc1cc(NC(=O)c2cc3ccccc3cc2O)c(OC)cc1Cl`
active

Next molecule: CC12CCC3C(CCC4CC(=O)/C(=C\O)CC43C)C1CCC(=O)O2 (stereo not given)
inactive
